Target: T1, DNTTIP1 (TdIF1), His-tagged (human, UniProt Q9H147 1-329)
T1 sequence: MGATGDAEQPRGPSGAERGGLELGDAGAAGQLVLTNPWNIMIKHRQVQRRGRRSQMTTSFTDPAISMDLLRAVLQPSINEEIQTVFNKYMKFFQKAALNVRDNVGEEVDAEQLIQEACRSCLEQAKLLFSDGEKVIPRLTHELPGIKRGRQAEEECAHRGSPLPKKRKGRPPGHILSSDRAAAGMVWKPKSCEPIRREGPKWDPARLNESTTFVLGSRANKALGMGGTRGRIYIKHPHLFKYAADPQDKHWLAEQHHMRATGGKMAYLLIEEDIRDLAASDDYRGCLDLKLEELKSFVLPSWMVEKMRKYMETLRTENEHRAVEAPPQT
Assay: fluorescence anisotropy; Hill n 1.63; error = fit SE x15; Anisotropy: 15 nM DNA, 10 mM Na-PO4 pH 6.5, 150 mM KCl, 250 uM TCEP, 5% glycerol. Pull-down: 20 mM HEPES pH 7.9, 100 mM KCl, 10% glycerol, 0.05% CHAPS, poly(dIdC), oligo B, acetylated BSA, room temperature
Details: protein: recombinant; tags: N-term 6xHis; chain copies: 2; label: fluorescein on first T of sense strand (anisotropy only); blunt
propertyLabel: Kd (nM)
Supply the numeric figure in nM, leaving out any unit text.

Please supply the value of reported Kd for the item ATCC_25 (dsDNA) DNA 1: AGATGATCCATATAAGGATATCCTT DNA 2: AAGGATATCCTTATATGGATCATCT
137
